# credit: patent US6127382A

# Assayed target: RXRβ (Mus musculus)
# Construct: expressed in transfected cells
# Sequence (P28704 whole entry): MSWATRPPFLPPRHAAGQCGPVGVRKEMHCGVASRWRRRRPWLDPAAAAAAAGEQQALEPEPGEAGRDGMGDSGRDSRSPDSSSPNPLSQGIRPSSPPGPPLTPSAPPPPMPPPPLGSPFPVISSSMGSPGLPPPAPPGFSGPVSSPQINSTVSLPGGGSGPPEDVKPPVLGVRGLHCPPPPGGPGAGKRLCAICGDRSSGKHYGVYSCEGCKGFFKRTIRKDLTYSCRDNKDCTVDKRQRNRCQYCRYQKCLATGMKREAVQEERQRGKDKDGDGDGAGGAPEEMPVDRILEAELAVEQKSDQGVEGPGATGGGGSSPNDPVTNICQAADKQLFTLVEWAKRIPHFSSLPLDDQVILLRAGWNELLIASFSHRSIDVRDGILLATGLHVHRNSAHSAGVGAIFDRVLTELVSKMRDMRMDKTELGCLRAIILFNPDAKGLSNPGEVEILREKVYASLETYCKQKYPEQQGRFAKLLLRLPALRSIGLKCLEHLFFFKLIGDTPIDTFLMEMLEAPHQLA
# Experiment notes: holoreceptor transactivation assay, RXRβ
# Type: cell-based
# Measurement setup: relative to 10^-6 M cyclopropyl penta-2,4-dienoic acid reference, read-out: % efficacy, RXRβ transactivation
So basically: Emax at 80% or higher? That is t. Lower than 80%? That is f.

Decide: Emax of CCN(c1ccc(C(=O)O)cc1)c1ccc2c(c1)C(C)(C)CCN2C(C)C >= 80%? f

Textbook exercise: given the entry Cc1cc2c(cc1N(CC1CC1)c1ccc(C(=O)O)cc1)C(C)(C)CCN2C(C)C , state whether its Emax is greater than or equal to 80%. f

Textbook exercise: given the entry CCN(c1ccc(C(=O)O)cc1)c1cc2c(cc1C)C(C)(C)CCN2C(C)C , state whether its Emax is greater than or equal to 80%. t

Does Emax meet or surpass 80% for Cc1cc2c(cc1N(C)c1ccc(C(=O)O)cc1)C(C)(C)CCN2C(C)C ? f

Check this compound for Emax at or above 80%: CCN(c1ccc(C(=O)O)cc1)c1ccc2c(c1)N(C(C)C)CCC2(C)C t

---

Field: Emax. Provide a value for each of the compounds that follow.
# Assayed target: RXRα (Homo sapiens)
# Construct: expressed in transfected cells
# Sequence (P19793 whole entry): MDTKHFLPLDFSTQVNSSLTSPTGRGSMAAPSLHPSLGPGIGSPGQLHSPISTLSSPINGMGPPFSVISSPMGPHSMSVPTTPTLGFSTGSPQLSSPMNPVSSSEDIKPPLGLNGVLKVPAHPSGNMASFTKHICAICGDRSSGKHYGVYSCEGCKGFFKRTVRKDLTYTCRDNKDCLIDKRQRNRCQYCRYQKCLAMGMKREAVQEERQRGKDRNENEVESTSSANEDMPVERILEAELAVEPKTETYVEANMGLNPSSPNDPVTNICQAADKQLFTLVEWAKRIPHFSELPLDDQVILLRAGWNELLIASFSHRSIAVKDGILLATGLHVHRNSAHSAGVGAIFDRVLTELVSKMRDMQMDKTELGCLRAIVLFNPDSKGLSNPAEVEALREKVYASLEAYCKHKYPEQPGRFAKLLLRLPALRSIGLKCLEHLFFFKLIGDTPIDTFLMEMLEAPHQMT
# Experiment notes: holoreceptor transactivation assay, RXRα
# Format: cell-based
# Measurement setup: relative to 10^-6 M cyclopropyl penta-2,4-dienoic acid reference, read-out: % efficacy, RXRα transactivation
# Text: Other assays described below, measure the ability of the compounds of the present invention to bind to, and/or activate various retinoid receptor subtypes. When in these assays a compound binds to a given receptor subtype and activates the transcription of a reporter gene through that subtype, then the compound is considered an agonist of that receptor subtype. […]
The answer is to be given in %; state only the numeric part.

Return Emax (reported value) for this compound: CCCN(c1ccc(C(=O)O)cc1)c1cc2c(cc1C)C(C)(C)CCN2C(C)C [Compound 53] 92

State its Emax for this compound: Cc1cc2c(cc1N(C)c1ccc(C(=O)O)cc1)N(C(C)C)CCC2(C)C [Compound 51] 92

Name the recorded Emax of the item CCN(c1ccc(C(=O)O)cc1)c1ccc2c(c1)C(C)(C)CCN2C(C)C [Compound 12] in your answer. 134

Annotate the compound Cc1cc2c(cc1N(CC1CC1)c1ccc(C(=O)O)cc1)C(C)(C)CCN2C(C)C [Compound 26] with its measured Emax. 25

---

# Assayed target: RARα (Homo sapiens, UniProt P10276)
# Sequence (P10276 1-462): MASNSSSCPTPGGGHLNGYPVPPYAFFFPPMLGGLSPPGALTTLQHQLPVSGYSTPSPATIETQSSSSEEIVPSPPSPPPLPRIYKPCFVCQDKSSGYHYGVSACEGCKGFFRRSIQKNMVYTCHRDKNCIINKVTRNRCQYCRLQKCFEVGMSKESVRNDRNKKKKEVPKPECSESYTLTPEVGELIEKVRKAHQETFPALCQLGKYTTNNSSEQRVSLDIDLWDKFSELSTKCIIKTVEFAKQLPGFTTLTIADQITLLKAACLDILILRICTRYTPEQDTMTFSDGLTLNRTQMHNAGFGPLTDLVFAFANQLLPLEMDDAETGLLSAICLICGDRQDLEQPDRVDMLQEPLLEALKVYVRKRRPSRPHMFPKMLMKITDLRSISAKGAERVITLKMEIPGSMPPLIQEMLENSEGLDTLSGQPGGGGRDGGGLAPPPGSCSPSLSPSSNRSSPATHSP
pKi: −log10 of the molar value.
pKi vs 6: at or above is 1.0, below is 0.0.

Hi, just wondering whether CCCN(c1ccc(C(=O)O)cc1)c1cc2c(cc1C)C(C)(C)CCN2C(C)C shows pKi of 6 or higher. 0.0

Assess whether reported pKi for CCN(c1ccc(C(=O)O)cc1)c1ccc2c(c1)C(C)(C)CC(=O)N2C(C)C sits at 6 or higher. 0.0

hey, is pKi for this one >= 6? CCN(c1ccc(C(=O)O)cc1)c1ccc2c(c1)C(C)(C)CCN2C(C)C 1.0

Could you tell me if the measured pKi of CC(C)CN(c1ccc(C(=O)O)cc1)c1ccc2c(c1)N(C(C)C)CCC2(C)C reaches 6 or more? 0.0

Threshold query (pKi >= 6) on CC(C)CCN(c1ccc(C(=O)O)cc1)c1ccc2c(c1)C(C)(C)CCN2C(C)C 1.0

Hi team, for CC(C)N1CCC(C)(C)c2cc(N(C)c3ccc(C(=O)O)cc3)ccc21 , is the recorded pKi at or above 6? 0.0
